Protein target, amino acids: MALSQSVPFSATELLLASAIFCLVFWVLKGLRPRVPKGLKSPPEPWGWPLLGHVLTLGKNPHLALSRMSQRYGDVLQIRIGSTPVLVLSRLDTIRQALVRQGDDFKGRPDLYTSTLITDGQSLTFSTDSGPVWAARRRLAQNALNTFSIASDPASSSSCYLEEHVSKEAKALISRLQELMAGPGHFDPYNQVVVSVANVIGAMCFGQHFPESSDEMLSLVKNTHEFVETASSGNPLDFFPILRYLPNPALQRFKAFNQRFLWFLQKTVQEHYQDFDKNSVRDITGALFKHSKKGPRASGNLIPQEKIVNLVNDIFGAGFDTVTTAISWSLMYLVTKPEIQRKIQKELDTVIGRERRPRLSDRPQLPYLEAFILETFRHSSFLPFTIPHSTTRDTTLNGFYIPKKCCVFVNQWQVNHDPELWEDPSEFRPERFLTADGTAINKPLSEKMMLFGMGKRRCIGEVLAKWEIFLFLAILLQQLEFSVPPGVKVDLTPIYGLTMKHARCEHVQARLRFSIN
Compiled notes: published pIC50 values involving the protein given by its sequence.
Field pIC50 (float): negative decimal logarithm of the concentration in molar.

Examples with answers:
Cc1cc(C2=NC(C)(C)CN2)cc2[nH]c(-c3c(NCC(O)c4cccc(Cl)c4)cc[nH]c3=O)nc12 (centres undefined) ... 4.96
Cc1noc2ccc(Nc3n[nH]c4ncc(F)cc34)cc12 ... 6.30
CCOC1CCc2cc(-c3cccnc3)ccc2C1 (centres undefined) ... 6.21

Then there is this molecule:
[in] # returns recorded pIC50 (system: the protein given by its sequence) for c1cnc2c(Nc3ccc4c(C5CCC5)noc4c3)n[nH]c2c1
[out] 5.74

---

Compiled notes: published IC50 values involving Cytochrome P450 1A2 (Homo sapiens).
- target.system: Cytochrome P450 1A2 (Homo sapiens)
- Sequence (P05177 whole entry): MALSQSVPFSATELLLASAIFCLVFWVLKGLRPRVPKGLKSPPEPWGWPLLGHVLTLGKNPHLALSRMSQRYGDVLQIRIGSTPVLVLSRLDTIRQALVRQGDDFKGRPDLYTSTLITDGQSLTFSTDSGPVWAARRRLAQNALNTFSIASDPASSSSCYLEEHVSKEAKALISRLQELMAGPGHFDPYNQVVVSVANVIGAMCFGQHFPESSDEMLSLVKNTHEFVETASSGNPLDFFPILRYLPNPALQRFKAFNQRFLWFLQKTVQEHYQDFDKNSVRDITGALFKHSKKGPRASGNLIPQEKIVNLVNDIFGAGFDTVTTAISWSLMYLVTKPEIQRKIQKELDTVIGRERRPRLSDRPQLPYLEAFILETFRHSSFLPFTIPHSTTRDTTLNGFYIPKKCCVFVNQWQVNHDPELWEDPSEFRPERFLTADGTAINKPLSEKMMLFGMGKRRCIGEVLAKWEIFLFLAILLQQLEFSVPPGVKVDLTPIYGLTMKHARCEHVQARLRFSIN

Examples with answers:
CCc1nccc2cc(Nc3n[nH]c4cccnc34)ccc12 ... < 1 µM
COc1cccc(C(=O)/C=C/c2cccnc2)c1 ... 0.48 µM
Cc1nc2cc(OC[C@H](O)CN3CCN(CC(=O)Nc4ccc(-c5ccccc5)cc4)CC3)ccc2s1 ... 31 µM
N#Cc1ccc(CNC(=O)c2ccc3nc(N)sc3c2)cc1 ... > 25 µM
COc1ccc(OC)c2c1c(OC)cc1c(=O)c(OCCOC(=O)CN)c(-c3cccc(F)c3)oc12 ... 0.0562 µM

[in] Could you tell me which IC50 is on file for CCS(=O)(=O)c1ccc(-c2cc(C(F)(F)F)ccc2OCC(=O)O)c(C)c1 ?
[out] > 50 µM

[in] Here is the next molecule: CCc1noc2cc(Nc3n[nH]c4cccnc34)ccc12
[out] < 0.1 µM

[in] Here is the next molecule: CN[C@H]1CC[C@@H](c2ccc(Cl)c(Cl)c2)c2ccccc21
[out] 29.7 µM

[in] Here is the next molecule: CC(=O)N[C@@H](C)/C=C/c1ccc(Oc2ccc(OCC(F)F)cc2Cl)nc1
[out] > 20 µM
